Test system: CPT-K5 (camptothecin-resistant variant of RPMI 8402)
ASSAY_EXPLANATION: Test B. MTT cytotoxicity assay, CPT-K5
Format: cell-based, human
CONDITION_SUMMARY: Homo sapiens, 96 h; CPT-K5; four days continuous exposure, MTT; read-out: Cytotoxicity IC50 CPT-K5
Protocol: Test B. Cytotoxic Assays (Cancer Cell Lines and Efflux Transporter Cell Lines) The cytotoxicity was determined using the MTT-microtiter plate tetrazolinium cytotoxicity assay (MTA). The human lymphoblast RPMI 8402 and its camptothecin-resistant variant cell line, CPT-K5 was provided by Dr. Toshiwo Andoh (Aichi Cancer Center Research Institute, Nagoya, Japan). […]
pIC50: −log10 of the molar value.
ATTRIBUTE_MEASURED: pIC50

Task: Name the reported pIC50 value associated with the molecule CC[C@@]1(O)C(=O)OCc2c1cc1n(c2=O)Cc2cc3ccccc3nc2-1 [CPT, Camptothecin, reference compound]
Result: < 5.00

----------
Tested on: P388/CPT45 (CPT-resistant TOP1-deficient variant of P388)
ASSAY_EXPLANATION: Test B. MTT cytotoxicity assay, P388/CPT45
Type: cell-based, mouse
CONDITION_SUMMARY: P388/CPT45; four days continuous exposure, MTT; read-out: Cytotoxicity IC50 P388/CPT45
ATTRIBUTE_MEASURED: pIC50
In textbook form, pIC50 equals minus log to base ten of the concentration in mol/L.

Task: Find the recorded pIC50 belonging to COc1cc2c(C(=O)NCC(C)(C)N(C)C)cc3c4cc5c(cc4ncc3c2cc1OC)OCO5 [Compound 31] and report it.
Result: 6.60

----------
ASSAY_EXPLANATION: Cytotoxicity on KB3-1 (parent cell line)
Format: cell-based
CONDITION_SUMMARY: human
Reported IC50 at 4 days by item:
The reply should be a number in nM, with the unit left off.

COMPOUND	IC50 at 4 days [nM]
COc1cc2c(C(=O)NCC(C)(C)N)cc3c4cc5c(cc4ncc3c2cc1OC)OCO5	4
COc1cc2cc(C(=O)NCCC(C)(C)N(C)C)c3c4cc5c(cc4ncc3c2cc1OC)OCO5	240
CC[C@@]1(O)C(=O)OCc2c1cc1n(c2=O)Cc2cc3c(CN(C)C)c(O)ccc3nc2-1 [Topotecan, topotecan, reference compound]	40
COc1cc2cc(C(=O)NCCN(C)C)c3c4cc5c(cc4ncc3c2cc1OC)OCO5 [Compound 216, reference compound]	27
COc1cc2c(C(=O)NCCC(C)(C)N(C)C)cc3c4cc5c(cc4ncc3c2cc1OC)OCO5	50

Task: Record request: IC50 at 4 days value, item COc1cc2c(C(=O)NCCCC(C)(C)N(C)C)cc3c4cc5c(cc4ncc3c2cc1OC)OCO5
Result: 250

Task: Also COc1cc2cc(C(=O)NCCCC(C)(C)N(C)C)c3c4cc5c(cc4ncc3c2cc1OC)OCO5 , if possible.
Result: 210

Task: What do you get for COc1cc2cc(C(=O)NCC(C)(C)N(C)C)c3c4cc5c(cc4ncc3c2cc1OC)OCO5 ?
Result: 3

Task: Then this compound: COc1cc2c(C(=O)NCCN(C)C)cc3c4cc5c(cc4ncc3c2cc1OC)OCO5 [Compound 206, reference compound]
Result: 5

----------
Test system: MDR1
ASSAY_EXPLANATION: Cytotoxicity on KBV-1 (overexpresses MDR1)
Assay type: cell-based
CONDITION_SUMMARY: human
Method: The cytotoxicity was determined using the MTT-microtiter plate tetrazolinium cytotoxicity assay (MTA). The human lymphoblast RPMI 8402 and its camptothecin-resistant variant cell line, CPT-K5 was provided by Dr. Toshiwo Andoh (Aichi Cancer Center Research Institute, Nagoya, Japan). (36) The P388 mouse leukemia cell line and its CPT-resistant TOP1-deficient variant P388/CPT45 (37) were obtained from Michael R. Mattern and Randal K. Johnson (GlaxoSmithKline, King of Prussia, Pa.). […]
ATTRIBUTE_MEASURED: IC50 at 4 days (nM)
The response must be a number in nM with no trailing unit.

Below, each entry is followed by its recorded IC50 at 4 days result.
COMPOUND	EXPERIMENTAL_SYSTEM	IC50 at 4 days [nM]
COc1cc2c(C(=O)NCC(C)(C)N)cc3c4cc5c(cc4ncc3c2cc1OC)OCO5	MDR1	480
COc1cc2c(C(=O)NCCC(C)(C)N(C)C)cc3c4cc5c(cc4ncc3c2cc1OC)OCO5	MDR1	2500

Task: Requested field: IC50 at 4 days. Item: COc1cc2cc(C(=O)NCC(C)(C)N(C)C)c3c4cc5c(cc4ncc3c2cc1OC)OCO5
Result: 65

Task: Check CC[C@@]1(O)C(=O)OCc2c1cc1n(c2=O)Cc2cc3c(CN(C)C)c(O)ccc3nc2-1 [Topotecan, topotecan, reference compound] too.
Result: 440

Task: Here is the next compound: COc1cc2cc(C(=O)NCCN(C)C)c3c4cc5c(cc4ncc3c2cc1OC)OCO5 [Compound 216, reference compound]
Result: 1400

Task: Can you check COc1cc2c(C(=O)NCCCC(C)(C)N(C)C)cc3c4cc5c(cc4ncc3c2cc1OC)OCO5 next?
Result: 2800

Task: One more compound: COc1cc2c(C(=O)NCCN(C)C)cc3c4cc5c(cc4ncc3c2cc1OC)OCO5 [Compound 206, reference compound]
Result: 220

----------
Measured IC50 values are reported for all entries that follow.
System: P388 mouse leukemia cell line
ASSAY_EXPLANATION: Test B. MTT cytotoxicity assay, P388
Type: cell-based
I only need the number, in nM, no unit after it.

GIVEN_SMILES	UNIT_LABEL	IC50
COc1cc2c(C(=O)NCC(C)(C)N(Cc3ccccc3)Cc3ccccc3)cc3c4cc5c(cc4ncc3c2cc1OC)OCO5	nM	30

Now turn to the next molecule.
Task: Which IC50 value belongs to COc1cc2c(C(=O)NCC(C)(C)N(C)C)cc3c4cc5c(cc4ncc3c2cc1OC)OCO5 ?
Result: 2

----------
Test system: RPMI 8402 human lymphoblast cells
ASSAY_EXPLANATION: Test B. MTT cytotoxicity assay, RPMI8402
Format: cell-based
// pIC50 lookup, one value per entry
pIC50 is defined as minus the log10 of a concentration measured in mol/L.

Task: // lookup pIC50 | system=RPMI 8402 human lymphoblast cells | key= COc1cc2c(C(=O)NCC(C)(C)N(Cc3ccccc3)Cc3ccccc3)cc3c4cc5c(cc4ncc3c2cc1OC)OCO5
Result: 7.22

Task: For COc1cc2c(C(=O)NCC(C)(C)N(C)C)cc3c4cc5c(cc4ncc3c2cc1OC)OCO5 then?
Result: 8.70

----------
Quick reference for IC50 among some molecules
Tested on: CPT-K5 (camptothecin-resistant variant of RPMI 8402)
ASSAY_EXPLANATION: Test B. MTT cytotoxicity assay, CPT-K5
Format: cell-based, human
CONDITION_SUMMARY: Homo sapiens, CPT-K5, 96 h, read-out: Cytotoxicity IC50 CPT-K5
Experimental: Test B. Cytotoxic Assays (Cancer Cell Lines and Efflux Transporter Cell Lines) The cytotoxicity was determined using the MTT-microtiter plate tetrazolinium cytotoxicity assay (MTA). The human lymphoblast RPMI 8402 and its camptothecin-resistant variant cell line, CPT-K5 was provided by Dr. Toshiwo Andoh (Aichi Cancer Center Research Institute, Nagoya, Japan). […]
Your answer is read as µM, so omit the unit and give the number.

Recorded IC50, per entry:
MOLECULE	ATTRIBUTE_MEASURED	READING
COc1cc2c(C(=O)NCC(C)(C)N)cc3c4cc5c(cc4ncc3c2cc1OC)OCO5 [Compound 33]	IC50	2.2
COc1cc2cc(C(=O)NCCCC(C)(C)N(C)C)c3c4cc5c(cc4ncc3c2cc1OC)OCO5 [Compound 45]	IC50	5.5
COc1cc2cc(C(=O)NCCC(C)(C)N(C)C)c3c4cc5c(cc4ncc3c2cc1OC)OCO5 [Compound 44]	IC50	5
COc1cc2c(C(=O)NCCC(C)(C)N(C)C)cc3c4cc5c(cc4ncc3c2cc1OC)OCO5 [Compound 42]	IC50	2.07

// switching to the query molecule
Task: Consider the molecule COc1cc2cc(C(=O)NCCN(C)C)c3c4cc5c(cc4ncc3c2cc1OC)OCO5 [Compound 216, reference compound] and give its measured IC50.
Result: 0.63
